List of pIC50 values.
Target: recombinant alpha-glucosidase I (human full-length glucosidase I, Glu 1) (Homo sapiens, UniProt Q13724)
Construct: 6-His (C); made in house; host or cells: HEK-293T cells transduced with BacMam virus (virus raised in Sf9)
Sequence (Q13724 1-837): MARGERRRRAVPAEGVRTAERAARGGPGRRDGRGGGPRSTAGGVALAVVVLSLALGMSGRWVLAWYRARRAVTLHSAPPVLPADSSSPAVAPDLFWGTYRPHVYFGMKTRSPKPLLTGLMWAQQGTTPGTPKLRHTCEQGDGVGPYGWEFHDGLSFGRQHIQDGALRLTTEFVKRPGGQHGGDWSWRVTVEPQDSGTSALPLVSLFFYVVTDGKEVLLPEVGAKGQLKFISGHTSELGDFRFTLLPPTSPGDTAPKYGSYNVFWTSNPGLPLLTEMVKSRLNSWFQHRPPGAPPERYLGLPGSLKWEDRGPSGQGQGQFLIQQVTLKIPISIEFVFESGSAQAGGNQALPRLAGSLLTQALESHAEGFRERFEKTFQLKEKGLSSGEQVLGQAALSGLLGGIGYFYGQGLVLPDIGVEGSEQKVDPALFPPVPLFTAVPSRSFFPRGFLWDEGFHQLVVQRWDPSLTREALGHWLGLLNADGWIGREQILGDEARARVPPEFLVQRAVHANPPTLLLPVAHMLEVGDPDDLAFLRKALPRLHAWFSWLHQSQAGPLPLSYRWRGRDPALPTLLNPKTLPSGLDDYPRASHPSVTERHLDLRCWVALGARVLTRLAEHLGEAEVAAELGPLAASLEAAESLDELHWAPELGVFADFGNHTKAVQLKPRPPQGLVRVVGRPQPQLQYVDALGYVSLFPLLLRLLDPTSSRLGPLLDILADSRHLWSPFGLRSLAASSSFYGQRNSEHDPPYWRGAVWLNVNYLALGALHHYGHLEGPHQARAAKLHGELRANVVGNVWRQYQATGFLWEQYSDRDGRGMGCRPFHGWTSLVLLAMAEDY
Assay: Alpha-glucosidase I assay (Amplex Red glucose detection, synthetic trisaccharide substrate)
Format: biochemical
// scale note: pIC50 = -log10(conc_M); give the bare number

Past entries and their recorded results:
{"columns": ["input-smiles", "pIC50"],
 "data": [
  ["OC[C@@H]1[C@@H](O)[C@H](O)[C@@H](O)CN1CCCCCCNc1cc(-c2cccnn2)cc(C2CC2)c1", 6.99],
  ["C[C@@H]1CN(c2ccc(NCc3ccc(CN4C[C@H](O)[C@@H](O)[C@H](O)[C@H]4CO)cc3)c([N+](=O)[O-])c2)C[C@H](C)O1", 9.00]
]}

# pIC50 of CS(=O)(=O)c1cc(NCc2cccc(CN3C[C@H](O)[C@@H](O)[C@H](O)[C@H]3CO)c2)cc(-c2cccnn2)c1 = 7.77

Measured pIC50, CS(=O)(=O)Nc1ccc(NCCCCCCN2C[C@H](O)[C@@H](O)[C@H](O)[C@H]2CO)c([N+](=O)[O-])c1 : 6.80

Item: CS(=O)(=O)c1cc(NCc2cccc(CN3C[C@H](O)[C@@H](O)[C@H](O)[C@H]3CO)c2)cc(-c2ncccn2)c1 | pIC50: 7.77

Lab note: O=[N+]([O-])c1cc(CCO)ccc1NCCCCCCN1C[C@H](O)[C@@H](O)[C@H](O)[C@H]1CO gave pIC50 of 6.80
